# Test system: Echinochloa oryzicola
# Assay: Pre-emergence herbicidal activity against Echinochloa oryzicola at 500 g a.i/ha measured after 14 days
# Format: functional, organism-based
Activity calls are given as the source filed them. The calls are words filed in the database; no cut-off is given here.
The reply should name one outcome from y for active, n for inactive

Worked examples follow.
Structure smiles | Answer label
CCCCNC(=O)c1cn(C)nc1Oc1cccc(C(F)(F)F)c1 | n
CSc1ccc(Oc2nn(C)cc2C(=O)Nc2ccc(F)cc2F)cc1C(F)(F)F | y
Cn1cc(C(=O)Nc2ccccc2)c(Oc2cccc(C(F)(F)F)c2)n1 | y
C#CCNC(=O)c1cn(C)nc1Oc1cccc(C(F)(F)F)c1 | n

Problem: Name the outcome recorded for "Cn1cc(C(=O)Nc2ccc(F)cc2F)c(Oc2cc(C(F)(F)F)ccn2)n1" in the assay.
Solution: n

Problem: Hi, sorry to bother you, what did the test record for "Cn1cc(NC(=O)c2ccc(F)cc2F)c(Oc2cccc(C(F)(F)F)c2)n1" ?
Solution: n

###

# Test system: Echinochloa oryzicola
# Assay: Pre-emergence herbicidal activity against Echinochloa oryzicola at 100 g a.i/ha measured after 14 days
# Format: functional, organism-based
Calls of active or inactive are those of the source. The calls are words filed in the database; no cut-off is given here.
Returns: one label drawn from active, inactive

Problem: Would you mind telling me which call this test gave "CCONC(=O)c1cn(C)nc1Oc1cccc(C(F)(F)F)c1" ?
Solution: active

Problem: Check the results log: what was the call for "Cn1cc(C(=O)Nc2ccccc2)c(Oc2cccc(C(F)(F)F)c2)n1" ?
Solution: active

Problem: Write down the call the test reported for this compound. Item: "COc1ccc(NC(=O)c2cn(C)nc2Oc2cccc(C(F)(F)F)c2)cc1OC"
Solution: inactive

Problem: Answer briefly: the call reported for "Cn1cc(C(=O)Nc2ccc(C(C)(C)C)cc2)c(Oc2cccc(C(F)(F)F)c2)n1" in this assay.
Solution: inactive

Problem: Assay result, entry "CCONC(=O)c1cn(C)nc1OCc1cccc(C(F)(F)F)c1" — outcome?
Solution: active

###

# Test system: Echinochloa oryzicola
# Assay: Post-emergence herbicidal activity against Echinochloa oryzicola assessed as bleaching of stem/leaf parts
# Format: functional, organism-based
Activity calls are given as the source filed them. No cut-off for these calls is given here.
Measured property: Activity

Compound | Assayed target | Result
CC(C)n1cc(C(=O)Nc2ccc(F)cc2F)c(Oc2cccc(C(F)(F)F)c2)n1 | Echinochloa oryzicola | Active
CCCONC(=O)c1cn(C)nc1Oc1cccc(C(F)(F)F)c1 | Echinochloa oryzicola | Active
Cn1cc(C(=O)NCC2CCCO2)c(Oc2cccc(C(F)(F)F)c2)n1 (stereo not given) | Echinochloa oryzicola | Active
Cn1cc(C(=O)Nc2ccc(Cl)cc2Cl)c(Oc2cccc(C(F)(F)F)c2)n1 | Echinochloa oryzicola | Active

--- query ---
"Cn1cc(C(=O)Nc2ccc(F)cc2F)c(Oc2ccc(Br)c(C(F)(F)F)c2)n1" yielded Activity of Active

###

# Test system: Pontederia vaginalis
# Assay: Pre-emergence herbicidal activity against Monochoria vaginalis assessed as bleaching of stem/leaf parts
# Type: functional, organism-based
Active and inactive are the calls of the source. The rule behind the calls is not given here.
Measured property: Activity

See these solved cases before continuing.
Molecule | Activity
CSc1ccc(Oc2nn(C)cc2C(=O)Nc2ccc(F)cc2F)cc1C(F)(F)F | Active
Cn1cc(C(=O)Nc2ccc(Cl)cc2F)c(Oc2cccc(C(F)(F)F)c2)n1 | Active
Cn1cc(C(=O)Nc2ccc(F)cc2F)c(Oc2ccc(Cl)c(C(F)(F)F)c2)n1 | Active
CC(NC(=O)c1cn(C)nc1Oc1cccc(C(F)(F)F)c1)c1ccccc1 (stereo not drawn) | Active
CCCONC(=O)c1cn(C)nc1Oc1cccc(C(F)(F)F)c1 | Active
Cn1cc(C(=O)NC2CC2)c(Oc2cccc(C(F)(F)F)c2)n1 | Active
CCn1cc(C(=O)Nc2ccc(F)cc2F)c(Oc2cccc(C(F)(F)F)c2)n1 | Active
Cn1cc(NC(=O)c2ccc(F)cc2F)c(Oc2cccc(C(F)(F)F)c2)n1 | Active

Form field Activity, entry "Cn1cc(C(=O)Nc2ccccc2)c(OCc2cccc(C(F)(F)F)c2)n1" : Active

Entry under test: "Cn1cc(C(=O)Nc2ccc(Cl)cc2Cl)c(Oc2cccc(C(F)(F)F)c2)n1" . Its Activity was Active

Activity measured on "COc1ccc(NC(=O)c2cn(C)nc2Oc2cccc(C(F)(F)F)c2)cc1OC" = Active

Looking up "CCCn1cc(C(=O)Nc2ccc(F)cc2F)c(Oc2cccc(C(F)(F)F)c2)n1" , I see its Activity listed as Active

Just so you know, measured Activity for "Cn1cc(C(=O)Nc2ccc(F)c(F)c2F)c(Oc2cccc(C(F)(F)F)c2)n1" came out at Active

// Activity value for "O=C(Nc1ccc(F)cc1F)c1cn(CCF)nc1Oc1cccc(C(F)(F)F)c1" : Active

Activity in this record for "Cn1cc(C(=O)Nc2ccc(C(C)(C)C)cc2)c(Oc2cccc(C(F)(F)F)c2)n1" : Active

Lab note: "Cn1cc(C(=O)Nc2ccc(F)cc2F)c(Oc2ccc(Br)c(C(F)(F)F)c2)n1" gave Activity of Active

The recorded Activity for entry "Cn1cc(C(=O)N2CCCC2)c(Oc2cccc(C(F)(F)F)c2)n1" equals Active

Short answer for "Cn1cc(C(=O)Nc2ccccc2Cl)c(Oc2cccc(C(F)(F)F)c2)n1" : Activity was Active
